Give Purity(%) at day 21 (40° C.) for every item shown.
Assay: Effect of temperature (and pH) on the stability of the solution (purity)
Format: physicochemical
Details: 7% solution in water, pH 3.0, day 21, 40° C.
Write it as a number; the unit % goes unstated.

Please report Purity(%) at day 21 (40° C.) for the following compound: "CCN(CC)CCOC(=O)COc1nn(Cc2ccccc2)c2ccccc12.Cl"
40.4

Recall and state the measured Purity(%) at day 21 (40° C.) for "CCN(CC)CCOC(=O)CCc1nc(-c2ccccc2)c(-c2ccccc2)o1.Cl" .
36.4

Kindly indicate its recorded Purity(%) at day 21 (40° C.). Item: "CCN(CC)CCOC(=O)CCc1ccc2cc(OC)ccc2c1.Cl"
49.3

Return Purity(%) at day 21 (40° C.) for the following compound: CCN(CC)CCOC(=O)CC1=C(C)C(=Cc2ccc([S+](C)[O-])cc2)c2ccc(F)cc21.Cl (stereo not shown)
45.7

* * *

Assay: Effect of concentration on the stability of the solution (purity over time)
Conditions: 7 wt %; in water at 25° C.
observable: Purity at Day 28 (%)
Please respond with the number in % and leave the unit unwritten.

Input "CCN(CC)CCOC(=O)Cc1c(C)n(C(=O)c2ccc(Cl)cc2)c2ccc(OC)cc12.Cl" , output reported Purity at Day 28.
97.4

Give the reported Purity at Day 28 for this compound. "CCN(CC)CCOC(=O)Cc1ccc(C(=O)c2ccc(C)cc2)n1C.Cl"
96.5

Assign Purity at Day 28 to the following record: "CCN(CC)CCOC(=O)CCc1nc(-c2ccccc2)c(-c2ccccc2)o1.Cl"
97.4

Consider the compound "CCN(CC)CCOC(=O)Cc1sc(-c2ccccc2)nc1-c1ccc(Cl)cc1.Cl" . State its measured Purity at Day 28.
97.5

Note Purity at Day 28 for the compound shown: CCN(CC)CCOC(=O)C(C)c1ccc2oc(-c3ccc(Cl)cc3)nc2c1.Cl (stereo not shown)
97.4

Give reported Purity at Day 28 value for "CCN(CC)CCOC(=O)CCc1ccc2cc(OC)ccc2c1.Cl"
97.4

Give Purity at Day 28 for CCN(CC)CCOC(=O)CC1=C(C)C(=Cc2ccc([S+](C)[O-])cc2)c2ccc(F)cc21.Cl (stereo not shown)
96.4

* * *

Test: Stability of the pure HPDs (dry solid) at 25° C./RH 60%
Assay type: physicochemical
Settings: pure HPD, 25° C./RH 60%, 12 month
observable: Purity

Report measured Purity; entry is CCCCC(=O)O.CCN(CC)CCOC(=O)c1ccccc1OC(C)=O [A-4]
98.0 ± 0.2

Please look at this compound and report its Purity: CCN(CC)CCOC(=O)c1ccccc1OC(C)=O.O=C(O)c1ccccc1 [A-2]
97.9 ± 0.1

Entry CCN(CC)CCOC(=O)C(C)c1ccc(CC(C)C)cc1.Cl (racemic) [C-4] needs its Purity filled in; supply it.
98.1 ± 0.3

Using the record for CC(C)Cc1ccc([C@@H](C)C(=O)OCCN(C)C)cc1.Cl (racemic) [C-5] , state its measured Purity.
98.0 ± 0.4

For the compound CC(O)C(=O)O.CCN(CC)CCOC(=O)c1ccccc1OC(C)=O [A-3] , give its measured Purity value.
97.9 ± 0.2

Recall and state the measured Purity for CCN(CC)CCOC(=O)[C@H](C)c1ccc(CC(C)C)cc1.Cl [C-1-3] .
98.0 ± 0.3

Please give the documented Purity of CCN(CC)CCOC(=O)[C@H](C)c1ccc2cc(OC)ccc2c1.O=C(O)CC(O)(CC(=O)O)C(=O)O (racemic) [C-3]
98.1 ± 0.3

* * *

Field: Purity at Day 3. Provide a value for each of the molecules that follow.
Test: Effect of concentration on the stability of the solution (purity over time)
Settings: 20 wt %; in water at 25° C.
Report as a plain number; the unit % is understood.

Answer with the recorded Purity at Day 3 for the molecule listed here: "CCN(CC)CCOC(=O)CCc1nc(-c2ccccc2)c(-c2ccccc2)o1.Cl"
98.7

Determine its reported Purity at Day 3: "CCN(CC)CCOC(=O)Cc1c(C)n(C(=O)c2ccc(Cl)cc2)c2ccc(OC)cc12.Cl"
98.4

Provide one value: measured Purity at Day 3 of "CCN(CC)CCOC(=O)Cc1sc(-c2ccccc2)nc1-c1ccc(Cl)cc1.Cl"
98.8

Look up and state reported Purity at Day 3 for "CCN(CC)CCOC(=O)Cc1ccc(C(=O)c2ccc(C)cc2)n1C.Cl"
97.6

Please report the measured Purity at Day 3 for CCN(CC)CCOC(=O)C(C)c1ccc2oc(-c3ccc(Cl)cc3)nc2c1.Cl (stereo not shown)
98.4

Name the recorded Purity at Day 3 of the item CCN(CC)CCOC(=O)CC1=C(C)C(=Cc2ccc([S+](C)[O-])cc2)c2ccc(F)cc21.Cl (stereo not shown) in your answer.
97.4

Determine its reported Purity at Day 3: "CCN(CC)CCOC(=O)CCc1ccc2cc(OC)ccc2c1.Cl"
98.4

* * *

Exercise: state measured Purity at Day 14 for each of the compounds provided.
Assay: Effect of concentration on the stability of the solution (purity over time)
Details: 8 wt %; in water at 25° C.
The reply should contain only the number, in %.

State its Purity at Day 14: "CCN(CC)CCOC(=O)Cc1sc(-c2ccccc2)nc1-c1ccc(Cl)cc1.Cl"
97.9

Supply recorded Purity at Day 14 for "CCN(CC)CCOC(=O)Cc1ccc(C(=O)c2ccc(C)cc2)n1C.Cl" here.
96.9

Identify Purity at Day 14 associated with the compound "CCN(CC)CCOC(=O)Cc1c(C)n(C(=O)c2ccc(Cl)cc2)c2ccc(OC)cc12.Cl"
98.0

Specify Purity at Day 14 for "CCN(CC)CCOC(=O)CCc1nc(-c2ccccc2)c(-c2ccccc2)o1.Cl" and stop.
97.9

Fill in reported Purity at Day 14 for this entry: CCN(CC)CCOC(=O)CC1=C(C)C(=Cc2ccc([S+](C)[O-])cc2)c2ccc(F)cc21.Cl (stereo not shown)
96.9

Identify measured Purity at Day 14 corresponding to "CCN(CC)CCOC(=O)CCc1ccc2cc(OC)ccc2c1.Cl"
98.0

Tell me Purity at Day 14 reported for CCN(CC)CCOC(=O)C(C)c1ccc2oc(-c3ccc(Cl)cc3)nc2c1.Cl (stereo not shown)
98.1

* * *

Please provide measured Purity at Day 21 for the entries that follow.
Test: Effect of concentration on the stability of the solution (purity over time)
Conditions: 0.1 wt %; in water at 25° C.
Lab book: enter the figure in %, no units written.

// fetch Purity at Day 21 given entry "CCN(CC)CCOC(=O)Cc1c(C)n(C(=O)c2ccc(Cl)cc2)c2ccc(OC)cc12.Cl"
84.7

Return Purity at Day 21 for the following molecule: CCN(CC)CCOC(=O)C(C)c1ccc2oc(-c3ccc(Cl)cc3)nc2c1.Cl (stereo not drawn)
87.2

Specify measured Purity at Day 21 for CCN(CC)CCOC(=O)[C@H](C)c1ccc2cc(OC)ccc2c1.Cl (racemic) .
95.4

* * *

Assay: Effect of pH value on the stability of the solution (purity)
Format: physicochemical
Conditions: day 28, pH 5.0, 7% in 25% ethanol, 25° C.
observable: Purity(%) from day 0-28
Your answer is read as %, so omit the unit and give the number.

Determine from records and report Purity(%) from day 0-28 for CCCCN(CCCC)CCOC(=O)C(C)c1ccc(CC(C)C)cc1.Cl (racemic) [C-6]
94.5

Determine its reported Purity(%) from day 0-28: CC(C)Cc1ccc([C@@H](C)C(=O)OCCN2CCCC2)cc1.Cl (racemic) [C-9]
88.6

Note Purity(%) from day 0-28 for the compound shown: CC(C)Cc1ccc([C@@H](C)C(=O)OCCC2CCNCC2)cc1.Cl (racemic) [C-8]
89.7

Give the reported value of Purity(%) from day 0-28 for this record: CCN(CC)CCOC(=O)C(C)c1ccc(CC(C)C)cc1.Cl (racemic) [C-4]
94.3

Provide only the value of recorded Purity(%) from day 0-28 for CC(C)Cc1ccc([C@@H](C)C(=O)OCCN(C)C)cc1.Cl (racemic) [C-5]
93.1

Please look at this compound and report its Purity(%) from day 0-28: CC(C)Cc1ccc(C(C)C(=O)OCCN2CCCCC2)cc1.Cl (racemic) [C-10]
88.5

Identify Purity(%) from day 0-28 associated with the compound CC(C)Cc1ccc([C@@H](C)C(=O)OC[C@@H]2CCCN2)cc1.Cl [C-7]
89.3

* * *

Assay: Effect of temperature (and pH) on the stability of the solution (purity)
Type: physicochemical
Conditions: 7% solution in water, pH 6.0, day 21, 5° C.
observable: Purity(%) at day 21 (5° C.)
Report only the number, with the unit % understood.

Look up and state reported Purity(%) at day 21 (5° C.) for "CCN(CC)CCOC(=O)CCc1nc(-c2ccccc2)c(-c2ccccc2)o1.Cl"
93.4

Please indicate Purity(%) at day 21 (5° C.) recorded for "CCN(CC)CCOC(=O)COC(=O)Cc1c(C)n(C(=O)c2ccc(Cl)cc2)c2ccc(OC)cc12.Cl"
95.8

Identify measured Purity(%) at day 21 (5° C.) corresponding to CCN(CC)CCOC(=O)C(C)c1ccc(-c2ccccc2)c(F)c1.Cl (racemic)
95.4

Supply reported Purity(%) at day 21 (5° C.) belonging to this compound: "CCN(CC)CCOC(=O)Cc1ccc(C(=O)c2ccc(C)cc2)n1C.Cl"
94.4
